Can you tell me TGI for the items I'm about to list?
- Tested on: MALME-3M melanoma
- runDescription: NCI tumour cell line growth inhibition, 48 h
*1 amine or outer side, *2 acyl side, *3 side chain or, on linkers, in order; H or OH if unused. Where a SMILES comes first, the peptide text is derived from it. Bridges are numbered along the chain shown (N, C = ends). [ ]: non-standard residue; d: D form. The star is where a group is joined. Phe(3,5-F2) = N[C@@H](Cc1cc(F)cc(F)c1)C(=O)O; Pro(4R-Me) = C[C@H]1CN[C@H](C(=O)O)C1; aThr = C[C@H](O)[C@H](N)C(=O)O; Pip = O=C(O)[C@@H]1CCCCN1; X10 = Fc1cc(C2CC2)ccc1N*; Abu = CC[C@H](N)C(=O)O; CO = O=C([*:1])[*:2]

# count of solved cases: 4
compound	assayedTarget	TGI
CC[C@@H]1NC(=O)[C@@H]2CCCCN2C(=O)[C@@H]2CCCN2C(=O)[C@@H](NC(=O)[C@H](Cc2cc(F)cc(F)c2)NC(=O)Nc2ccc(C3CC3)cc2F)[C@H](C)OC(=O)[C@@H]2C[C@@H](C)CN2C1=O ({X10-CO}-[Phe(3,5-F2)][aThr]P[Pip][Abu][Pro(4R-Me)]; ester 2-C)	MALME-3M melanoma	2.93 µM
O=C(NC1C2CC3CC(C2)CC1C3)c1ccncn1 (stereo unspecified)	MALME-3M melanoma	> 100 µM
N#C/C(=C\c1c(Cl)cccc1Cl)c1ccccc1	MALME-3M melanoma	56 µM
O=Cc1c(Cn2ccnc2)c2cc([N+](=O)[O-])ccc2n1Cc1ccccc1	MALME-3M melanoma	> 100 µM

Could I get TGI for every one of these entries?
1. COc1cc2c(cc1OC)[Se]c1cc(OC)c(OC)cc1[Se]2
2. CC1(C(=O)O)CCC(C(=O)O)C(C)(C)O1 (stereo unspecified)

["> 100 µM", "> 100 µM"]

* * *

For each of the compounds below, state its TGI.
- System: A498 renal
- runDescription: NCI tumour cell line growth inhibition, 48 h

Examples from the recorded data:
> print(dat)
                                   compound     result
1  O=c1c(C(=Nc2ccccc2)c2ccccc2)c[nH]n1-c1ccccc1   > 100 µM
2        FC(F)(F)CNc1nccc(-c2cnn3ncccc23)n1  > 22.6 µM

// each listed compound needs a value for TGI
1. OC1(c2ccccc2)CCCCCCCCC(O)(c2ccccc2)CCCCCCCC1 (stereo unspecified)
2. Fc1ccc(-c2nnc3sc(-c4cc(Cl)cc(Cl)c4)nn23)cc1Cl
3. COc1cc(NC(=O)c2ccc(C(F)(F)F)nc2Nc2cc(Cl)ccc2C)cc(OC)c1OC
4. O=C(O)c1sccc1O
5. Cc1ccc(C)c(COc2cc(NC(=O)c3ccc4c(c3)OCO4)ccc2N(C)S(C)(=O)=O)c1
6. CN(C)c1ccc(/C=N/N=C2\C(=O)Nc3c(Cl)cc(Cl)cc32)cc1

1. > 100 µM
2. 77.9 µM
3. 18.2 µM
4. > 100 µM
5. 0.853 µM
6. > 100 µM

Batch request: TGI for each of the following compounds.
1. Cn1c2ccccc2c2ccc3c(c21)C(=O)C=CC3=O
2. CCc1nc(N)nc(N)c1-c1ccc(Cc2ccccc2)c([N+](=O)[O-])c1
3. ClC1=C(Cl)C(Cl)=C(Cl)C1=Cc1ccccc1

1: > 59.4 µM; 2: > 74.2 µM; 3: 2.78 µM

Attribution: PubChem BioAssay (NCI)
